Taken from patent US20250026815A1.

- Experimental target: RSV-F protein of RSV B9320 virus (as carried by the live virus in the neutralisation assay) (human respiratory syncytial virus, …)
- Run description: cell-based or functional assay
Readout type: Absolute IC50, neutralizing RSV B9320 (HEp-2 cells, indirect ELISA)

Here are 2 binders together with their reported answers.
| Binder | Experimental value |
| --- | --- |
| R3-16A10QH (antibody, human IgG1, kappa, V domains shown, also called chimeric antibody of R3-16A10) VH: EVKLEESGPELVKPGASVKISCKTSGYAFSDSWMNWVKQRPGQGLEWIGRIYPGDGDTQYNGKVKGKATLTADKSSSTAYMQVSSLTSVDSAVYFCAREGGMITSSGYYHALDYWGQGTSVTVSS VL: DIVMTQSPASLAVSLGQRTTISCRASESVDSYGNSFLNWYQQKPGQPPKVLIYLASNLESGVPARFSGSGSRTDFTLIIDPVEADDAATYYCQQNNEDPTFGGGTKLEIKR | 0.0726 µg/mL |
| R1-11C3QH (antibody, human IgG1, kappa, V domains shown, also called chimeric antibody of R1-11C3) VH: EVQLEESGAELVRSGASVKLSCTASGFNIKDYYMHWVKQRPEQGLEWIGWIDPENGDTEYAPKFQGKATLTADTSSNTAYLQLSTLTSEDNAVYYCNAAYYGDYVEDMDYWGQGTSVTVSS VL: DIVMTQTPLSLSVSLGDQASISCRSSQSIVHSDGNTFLEWYLQKPGQSPKLLIYKVSNRFSGVPDRFSGSGSGTDFTLKISRVEAEDLGVYYCFQASHLPRTFGGGTKLEIKR | 0.0666 µg/mL |

In plain terms, R10-19B2QH (antibody, human IgG1, kappa, V domains shown) VH: EVKLQESGPGMLQPSQTLSLTCSFSGFSLSTSGMGVSWIRQPSGKGLEWLAHIYWDDDKNFNPSLRSRLIISKDPSRNQVFLEITSVDTADTATYFCARKLYNDYDYILDYWGQGTSVTVSS VL: DIVMTQAAFSNPVTLGTSASISCRSSKSLLHSNGITYLCWFLQKPGQSPQLLIYQMSNLASGVPDRFSGSGSGTDFTLRISRVEAEDVGVYYCAQNLELWTFGGGTKLEIKR has a documented Absolute IC50, neutralizing RSV B9320 (HEp-2 cells, indirect ELISA) of 0.021 µg/mL
